Values compiled from patent US20240400638A1.

# tested_target: T1, human RXFP1 (human, UniProt Q9HBX9 1-757)
# T1 sequence (looked up): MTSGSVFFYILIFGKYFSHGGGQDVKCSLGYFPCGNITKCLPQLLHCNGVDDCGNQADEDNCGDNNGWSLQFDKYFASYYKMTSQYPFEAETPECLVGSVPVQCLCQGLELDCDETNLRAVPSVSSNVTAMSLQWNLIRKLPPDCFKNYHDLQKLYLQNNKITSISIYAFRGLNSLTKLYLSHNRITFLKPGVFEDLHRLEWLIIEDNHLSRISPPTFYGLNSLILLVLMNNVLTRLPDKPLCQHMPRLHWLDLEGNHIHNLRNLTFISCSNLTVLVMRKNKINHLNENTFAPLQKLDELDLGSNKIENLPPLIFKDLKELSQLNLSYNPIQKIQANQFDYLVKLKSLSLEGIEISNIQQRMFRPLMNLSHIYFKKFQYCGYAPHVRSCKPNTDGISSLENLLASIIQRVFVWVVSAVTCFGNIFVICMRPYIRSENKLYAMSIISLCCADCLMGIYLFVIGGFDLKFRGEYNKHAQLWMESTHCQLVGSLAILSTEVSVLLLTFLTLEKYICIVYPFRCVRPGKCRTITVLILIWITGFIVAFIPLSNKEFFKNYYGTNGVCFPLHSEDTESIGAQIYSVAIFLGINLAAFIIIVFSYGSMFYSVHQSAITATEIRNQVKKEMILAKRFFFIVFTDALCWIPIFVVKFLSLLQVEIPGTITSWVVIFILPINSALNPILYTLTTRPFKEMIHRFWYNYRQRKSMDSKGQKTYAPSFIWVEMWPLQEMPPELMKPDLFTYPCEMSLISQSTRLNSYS
# procedure_summary: cell-based or functional assay
Numbered stars: 1 amine (or outer) side, 2 acyl side, 3 side chain; on linkers, the order of the positions; unused ones are H or OH. Square brackets hold non-standard residues; d marks the D form. Side chains are listed from the residue outwards. * marks the point of attachment. TTDS = 4-[3-[2-[2-(3-aminopropoxy)ethoxy]ethoxy]propylamino]-4-oxo-butanoyl; Trp(5-F) = N[C@@H](Cc1c[nH]c2ccc(F)cc12)C(=O)O; Phe(4-F) = N[C@@H](Cc1ccc(F)cc1)C(=O)O; γGlu = O=C(O)[C@H](CCC(=O)[*:2])N[*:1]; Stearoyl = CCCCCCCCCCCCCCCCCC(=O)*; Palmitoyl = CCCCCCCCCCCCCCCC(=O)*; αMeK = C[C@](N)(CCCCN)C(=O)O; hLys = NCCCCC[C@H](N)C(=O)O; Aib = CC(C)(N)C(=O)O
Kindly supply the reported EMax, OVCAR 5 cells (cAMP) values for the records listed here.
Give bare numbers, in %.

For orientation, consider the following solved cases.
| binder | quantity_kind | unit_spec | quantitative_readout |
| --- | --- | --- | --- |
| Ac-LEGREFVRAK(Ac)I[Aib][Aib]EGK([TTDS-TTDS-TTDS-γGlu-γGlu-γGlu-Palmitoyl])STWS[Aib]RRK(Ac)-NH2 [Relaxin peptide analogue of SEQ ID NO: 39] | EMax, OVCAR 5 cells (cAMP) | % | 93 |
| Ac-LEGREKVRAK(Ac)I[Aib][Aib]EGK([TTDS-TTDS-TTDS-γGlu-γGlu-γGlu-Palmitoyl])STWK(Ac)[Aib]RAK(Ac)-NH2 [Relaxin peptide analogue of SEQ ID NO: 66] | EMax, OVCAR 5 cells (cAMP) | % | 93 |
| Ac-LEGREKVRAK(Ac)I[Aib][Aib]EGK([TTDS-TTDS-TTDS-TTDS-γGlu-γGlu-γGlu-Stearoyl])STFS[Aib]RKK(Ac)-NH2 [Relaxin peptide analogue of SEQ ID NO: 59] | EMax, OVCAR 5 cells (cAMP) | % | 99 |

For each listed entry, give its EMax, OVCAR 5 cells (cAMP).
1. Ac-LEGRERVRAK(Ac)I[Aib][Aib]EGK([TTDS-TTDS-TTDS-TTDS-γGlu-γGlu-γGlu-Palmitoyl])STWS[Aib]RRK(Ac)-NH2 [Relaxin peptide analogue of SEQ ID NO: 75]
2. Ac-LEGRELVRAK(Ac)I[Aib][Aib]EGK([TTDS-TTDS-TTDS-γGlu-γGlu-γGlu-Palmitoyl])STFS[αMeK]RAK(Ac)-NH2 [Relaxin peptide analogue of SEQ ID NO: 23]
3. Ac-LEGREKVRAK(Ac)I[Aib][Aib]EGK([TTDS-TTDS-TTDS-γGlu-γGlu-γGlu-Palmitoyl])STFTRRAK(Ac)-NH2 [Relaxin peptide analogue of SEQ ID NO: 93]
4. Ac-LEGREKVRAK(Ac)I[Aib][Aib]EGK([TTDS-TTDS-TTDS-γGlu-γGlu-γGlu-Palmitoyl])STF[Aib]RRAK(Ac)-NH2 [Relaxin peptide analogue of SEQ ID NO: 72]
5. Ac-LEGREKVRAK(Ac)I[Aib][Aib]EGK([TTDS-TTDS-TTDS-γGlu-γGlu-γGlu-Stearoyl])STFS[Aib]RKK(Ac)-NH2 [Relaxin peptide analogue of SEQ ID NO: 61]
6. Ac-LEGREKVRAK(Ac)I[Aib][Aib]EGK([TTDS-TTDS-γGlu-γGlu-γGlu-Palmitoyl])STWS[dK]RAK(Ac)-NH2 [Relaxin peptide analogue of SEQ ID NO: 17]

Response given:
1: 97; 2: 92; 3: 86; 4: 91; 5: 97; 6: 91

For each listed entry, give its EMax, OVCAR 5 cells (cAMP).
1. Ac-LEGREKVRAK(Ac)I[Aib][Aib]EGK([TTDS-TTDS-TTDS-γGlu-γGlu-γGlu-Palmitoyl])SKWS[Aib]RAK-NH2 [Relaxin peptide analogue of SEQ ID NO: 73]
2. Ac-LEGREKVR[Aib]K(Ac)I[Aib][Aib]EGK([TTDS-TTDS-TTDS-γGlu-γGlu-γGlu-Palmitoyl])STFS[αMeK]RAK(Ac)-NH2 [Relaxin peptide analogue of SEQ ID NO: 29]
3. Ac-LEGREKVRAK(Ac)I[Aib][Aib]EGK([TTDS-TTDS-TTDS-γGlu-γGlu-γGlu-Palmitoyl])STFS[hLys]RAK(Ac)-NH2 [Relaxin peptide analogue of SEQ ID NO: 88]

Response given:
95
88
96

For each listed entry, give its EMax, OVCAR 5 cells (cAMP).
1. LEGREKVRAKIXXEGKSTFSKRAK (Ac-L-E-G-R-E-K-V-R-A-K(Ac)-I-Aib-Aib-E-G-K(PEG2DGA-PEG2DGA-PEG2DGA-gE-gE-gE-Palm)-S-T-F-S-Mly-R-A-K(Ac)-NH2) [Relaxin peptide analogue of SEQ ID NO: 22]
2. Ac-LEGRERVRAK(Ac)I[Aib][Aib]EGK([TTDS-TTDS-TTDS-γGlu-γGlu-γGlu-Palmitoyl])ST[Trp(5-F)]S[Aib]RRK(Ac)-NH2 [Relaxin peptide analogue of SEQ ID NO: 92]
3. Ac-LEGREQVRAK(Ac)I[Aib][Aib]EGK([TTDS-TTDS-TTDS-γGlu-γGlu-γGlu-Palmitoyl])STFS[αMeK]RAK(Ac)-NH2 [Relaxin peptide analogue of SEQ ID NO: 25]
4. Ac-LEGRERVRAK(Ac)I[Aib][Aib]EGK([TTDS-TTDS-TTDS-γGlu-γGlu-γGlu-Palmitoyl])ST[Phe(4-F)]S[Aib]RRK(Ac)-NH2 [Relaxin peptide analogue of SEQ ID NO: 91]
5. Ac-LEGREKVRAK(Ac)I[Aib][Aib]EGK([TTDS-TTDS-TTDS-γGlu-γGlu-γGlu-Stearoyl])STFS[αMeK]RAK(Ac)-NH2 [Relaxin peptide analogue of SEQ ID NO: 7]

Response given:
1: 92; 2: 99; 3: 100; 4: 97; 5: 95

Challenge: Endpoint output: EMax, OVCAR 5 cells (cAMP) of Ac-LEGREKVRAK(Ac)I[Aib][Aib]EGK([TTDS-TTDS-TTDS-γGlu-γGlu-γGlu-Palmitoyl])STWS[Aib]RK(Ac)R-NH2 [Relaxin peptide analogue of SEQ ID NO: 69] . Value?
Response given: 97
